# Species: Gallus gallus
# assayDetails: Binding affinity to monoamine transporter in dissociated chick brain stem cells assessed as receptor-mediated compound uptake
# Type: cell-based
Active and inactive are the calls of the source. No cut-off for these calls is given here.
Write down the outcome that applies. Available outcomes: active, inactive

## Task Record lookup: outcome of this test for NCCOc1cccc2c(O)cccc12 ?
## Result inactive

## Task Similarly, NCCc1ccc2ccc3cccc4ccc1c2c34 ?
## Result inactive

## Task Can you check NCCn1cc2c(nc1=O)Nc1ccccc1S2 next?
## Result active

## Task Do the same for COc1cccc2c(OCCN)cccc12 please
## Result inactive

## Task Now the compound NCCc1c2ccccc2cc2ccccc12
## Result inactive

## Task Likewise for NCCN1C(=O)c2cccc3c(N)ccc(c23)C1=O ?
## Result active
